Measured AC50 of individual entries
- method notes: loss of viability in HepG2 cells – cell-based, CellTiter-Glo, cherry-picked, cytotoxicity control for Shn3 inhibitor project, dose response (AID 624134)
- Type: functional
Activity calls are given as the source filed them.

# molecule, AC50
records = [
    ("Cc1cccc2c(C(=O)N3CCN(c4ccccn4)CC3)cc(-c3cccc(Br)c3)nc12", "45.4 µM (active)"),
    ("COc1ccc(NS(=O)(=O)c2cccc(NC(=O)c3ccc(S(=O)(=O)N4CCCCCC4)cc3)c2)cc1", "38.8 µM (active)"),
    ("CCCC(=O)NC(c1ccc(Cl)cc1)c1ccc2cccnc2c1O (stereo unspecified)", "1.17 µM (active)"),
    ("Cc1ccc(CNC(=O)c2ccc3c(O)c(O)c(-c4ccc(C)cc4)nc3c2)cc1", "3.49 µM (active)"),
    ("CN(C)CCCNc1c2ccccc2nc2ccccc12", "7.82 µM (active)"),
    ("CCC(=O)NC(c1ccc(C)cc1)c1ccc2cccnc2c1O (stereo unspecified)", "1.24 µM (active)"),
]

---

- system: Cytochrome P450 2C9 (Homo sapiens, UniProt P11712)
- Sequence (P11712 whole entry): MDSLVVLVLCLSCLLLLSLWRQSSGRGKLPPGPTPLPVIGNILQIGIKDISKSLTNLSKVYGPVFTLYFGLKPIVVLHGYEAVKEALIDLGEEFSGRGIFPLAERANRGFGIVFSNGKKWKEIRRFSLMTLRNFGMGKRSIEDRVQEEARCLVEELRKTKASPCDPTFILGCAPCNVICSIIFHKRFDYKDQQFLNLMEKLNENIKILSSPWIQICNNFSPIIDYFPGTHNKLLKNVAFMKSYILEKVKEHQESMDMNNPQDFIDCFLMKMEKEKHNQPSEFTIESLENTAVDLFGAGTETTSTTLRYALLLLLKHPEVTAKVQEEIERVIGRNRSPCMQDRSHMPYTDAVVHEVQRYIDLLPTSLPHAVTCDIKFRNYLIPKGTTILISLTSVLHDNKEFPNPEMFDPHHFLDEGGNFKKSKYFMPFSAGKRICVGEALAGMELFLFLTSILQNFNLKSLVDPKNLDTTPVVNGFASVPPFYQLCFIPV
- test context: Potency
Reported AC50 is given for each of the following compounds.

# compound, system, AC50
measured = [
    ("CC(=O)O[C@@H]1CC[C@]2(C)[C@H]3CC[C@]4(C)[C@H](C[C@H]5CCCC[C@@]54C(C)=O)[C@@H]3CC(=O)[C@@]2(O)C1", "Cytochrome P450 2C9 (Homo sapiens, UniProt P11712)", "25.1 µM (inconclusive)"),
    ("COC(=O)NC(c1ccco1)C(C(C)=O)C(=O)OC (centres undefined)", "Cytochrome P450 2C9 (Homo sapiens, UniProt P11712)", "1 µM (inconclusive)"),
    ("CC(C)C[C@@H](CC(=O)N[C@@H](CCC(=O)O)CC(=O)O)NC(=O)[C@@H]1CNCC[C@H]1NC(=O)C[C@@H](NC(=O)C[C@H](CO)NC(=O)[C@@H]1CNCC[C@H]1N)C(C)C", "Cytochrome P450 2C9 (Homo sapiens, UniProt P11712)", "6.31 µM (inconclusive)"),
    ("NCCC[C@@H](CC(=O)N[C@@H]1CCNC[C@H]1C(=O)N[C@H](CC(=O)N[C@@H](CCC(=O)O)CC(=O)O)Cc1c[nH]c2ccccc12)NC(=O)C[C@H](Cc1c[nH]c2ccccc12)NC(=O)[C@@H]1CNCC[C@H]1N", "Cytochrome P450 2C9 (Homo sapiens, UniProt P11712)", "31.6 µM (inconclusive)"),
]

---

- system: Endoribonuclease toxin MazF (Escherichia coli K-12, UniProt P0AE70)
- Sequence (P0AE70 whole entry): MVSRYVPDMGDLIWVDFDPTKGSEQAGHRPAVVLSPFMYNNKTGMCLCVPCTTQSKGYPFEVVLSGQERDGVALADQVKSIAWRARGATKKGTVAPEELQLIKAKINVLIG
- method notes: substrate-only fluorescence increase artefacts – biochemical, single-stranded RNase substrate, counter-screen for MazEF activator project, dose response (AID 588502)
- Type: functional
Calls of active or inactive are those of the source.
assay endpoint: EC50

# smiles text, assay endpoint, result
data = [
    ("CC(=O)Oc1c(/C=C(\\C#N)C(N)=O)[nH]c2ccccc12", "EC50", "> 99 µM (inactive)"),
    ("CCCN1C(=O)/C(=C/c2c(NCCCOC(C)C)nc3c(C)cccn3c2=O)SC1=S", "EC50", "34.2 µM (inactive)"),
    ("Cc1cc(O)c(/C=N/c2ccc(N3CCOCC3)cc2)c(C)c1Cl", "EC50", "> 99 µM (inactive)"),
    ("CCN(CC)S(=O)(=O)c1ccc(Cl)c(NC(=O)c2cc(Cl)ccc2Cl)c1", "EC50", "> 99 µM (inactive)"),
    ("CC(=O)c1cc2c(C)c(C(=O)c3ccccc3)oc2cc1O", "EC50", "> 99 µM (inactive)"),
]

Reference source: ChEMBL document CHEMBL1201862
